# PROTOCOL SUMMARY: Pharmacokinetics of Example 101 in Lewis rats (oral, CIA study)
# Assay type: in vivo, Lewis rat
# APPLIED CONDITIONS: day 20, 10 mg/kg, mean
MEASUREMENT KIND: AUClast/D, Mean (kg·ng·h/mL/mg)
Numbers only, in kg·ng·h/mL/mg.

// lookup AUClast/D, Mean for CNC(=O)c1[nH]c(C(=O)NC2CCC2)cc1O[C@@H](C)c1ccccc1 528

* * *

Can you tell me Plasma Stability (% remaining at 120 minutes) Rat for the items I'm about to list?
# PROTOCOL SUMMARY: Plasma stability assay, rat plasma
# Assay type: in vitro ADME
# APPLIED CONDITIONS: 37° C., Method 2 (10 μM)
# Protocol: Exemplary compounds of the disclosure are stable upon incubation in mouse plasma. Stability is expressed as a % remaining after 120 minutes. The experimental methods and results (Table 2) are provided hereinafter. Plasma Stability Assay, Method 1 From stock solution of compound in 10 mM DMSO, a working solution of 1 mM is prepared by diluting the compound in DMSO. […] Aliquots of the supernatant is analysed using LC-MS/MS. […]
Give bare numbers, in %.

MOLECULE: CNC(=O)c1[nH]c(C(=O)NCC(F)(F)F)cc1O[C@@H](C)c1ccccc1
RESULT NUMBER: 93

Hi team, please reply with Plasma Stability (% remaining at 120 minutes) Rat for each item in this list.
1. CNC(=O)c1[nH]c(C(=O)NC2CC2)cc1O[C@@H](C)c1ccc(Cl)cc1
2. CNC(=O)c1[nH]c(C(=O)NC2CCC2)cc1OC(C)c1ccccc1F (single isomer, unassigned)
3. CNC(=O)c1[nH]c(-c2ncc(C)[nH]2)cc1O[C@@H](C)c1ccc(Cl)cc1
4. CNC(=O)c1[nH]c(C(=O)NC2CC2)cc1O[C@@H](C)c1ccccc1F
5. CCNC(=O)c1cc(OC(C)c2ccc(I)cc2)c(C(=O)NC)[nH]1 (single isomer, unassigned)
6. CCNC(=O)c1cc(OC(c2ccccc2)c2ccccc2)c(C(=O)NC)[nH]1
7. CNC(=O)c1[nH]c(C(=O)NC2CCC(O)CC2)cc1OC(C)c1ccc(Cl)cc1 (single isomer, unassigned)

82
20
83
50
93
91
89

* * *

# PROTOCOL SUMMARY: Plasma stability assay, rat plasma
# Format: in vitro ADME
# APPLIED CONDITIONS: 37° C., Method 2 (10 μM)
MEASUREMENT KIND: Plasma Stability (% remaining at 120 minutes) Rat (%)
Numbers only, in %.

Below, 5 compounds whose answers are already recorded.
COMPOUND: CCNC(=O)c1[nH]c(C(=O)NC)c(O[C@@H](C)c2ccccc2F)c1Br
RESULT NUMBER: 9
//
COMPOUND: CNC(=O)c1[nH]c(C(=O)NC2CCC2)cc1OC(C)c1ccc(Cl)cc1F (single isomer, unassigned)
RESULT NUMBER: 67
//
COMPOUND: C#Cc1ccc(C(C)Oc2cc(C(=O)NCC)[nH]c2C(=O)NC)cc1 (single isomer, unassigned)
RESULT NUMBER: 92
//
COMPOUND: CNC(=O)c1[nH]c(-c2ncc(C)[nH]2)cc1O[C@@H](C)c1ccccc1F
RESULT NUMBER: 75
//
COMPOUND: CCNC(=O)c1cc(OC(C)c2c(F)cccc2F)c(C(=O)NC)[nH]1 (single isomer, unassigned)
RESULT NUMBER: 88

Hi team, please reply with Plasma Stability (% remaining at 120 minutes) Rat for each item in this list.
1. CCNC(=O)c1cc(OC(C)c2ccc(Br)cc2)c(C(=O)NC)[nH]1 (single isomer, unassigned)
2. CNC(=O)c1[nH]c(C(=O)NC2CCC2)cc1OC(C)c1ccc(Cl)cn1 (single isomer, unassigned)

1: 90; 2: 85
